Test summary: Acute pharmacokinetic study, plasma
Assay type: in vivo, CD-1 mice
Test conditions: both sexes, CD-1, im; mouse plasma, intramuscular injection, 10 or 50 mg/kg; read-out: median time to maximum concentration (Tmax)
Measured endpoint: tmax

Asked: # get_value(readout='tmax', item= `CNC(=O)c1cc(Oc2ccc(NC(=O)Nc3cc(C(C)(C)C)nn3-c3ccc4ncccc4c3)c(F)c2)ccn1` )
Given back: 2 to 4 h

====

System: DUX4
Test summary: FSHD hESC-SkM immunocytochemistry, DUX4 expression
Assay type: cell-based, human
Test conditions: Homo sapiens; Genea049 hESC-SkM dose curve; read-out: estimated IC50 value, DUX4-suppressive effect
pIC50: −log10 of the molar value.
Measured endpoint: pIC50

Asked: Which measured pIC50 belongs to `CNC(=O)c1cc(Oc2ccc(NC(=O)Nc3cc(C(C)(C)C)nn3-c3ccc4ncccc4c3)c(F)c2)ccn1` , tested on DUX4?
Given back: ~7.00
